Test: Cytotoxicity/antiproliferative assay (MTT) on Caco-2
Type: cell-based
Settings: human, read-out: Cytotoxicity (% cell viability at 30 µM) Caco-2
Experimental: XO inhibitory and antioxidant assays were performed in triplicate while antiproliferative assay was conducted in quadruplicate. For each assay, at least two independent experiments were performed. […] All in vitro results are expressed as mean values ± standard deviation (SD) of at least two independent determinations. The difference between groups was analyzed for each assay by Student’s t-test. […]
Value type: viability at 72 h, 30 µM (%)
Kindly provide the numeric value in % only, without the unit symbol.

Qu. Using the record for CCn1c(O)c(C(c2ccccc2)c2c(O)n(CC)c(=S)n(CC)c2=O)c(=O)n(CC)c1=S [Compound 3] , report its viability at 72 h, 30 µM.
Ans. 91.2

Qu. Using the record for CCn1c(O)c(C(c2cc3c(cc2[N+](=O)[O-])OCO3)c2c(O)n(CC)c(=S)n(CC)c2=O)c(=O)n(CC)c1=S [Compound 17] , report its viability at 72 h, 30 µM.
Ans. 88.7

Qu. Using the record for CCn1c(O)c(C(c2cccc(O)c2)c2c(O)n(CC)c(=S)n(CC)c2=O)c(=O)n(CC)c1=S [Compound 12] , report its viability at 72 h, 30 µM.
Ans. 90.9

---

Field: viability at 72 h, 30 µM. Provide a value for each of the compounds that follow.
assay: Cytotoxicity/antiproliferative assay (MTT) on MCF-7; format: cell-based; settings: human, MCF-7 cells (breast adenocarcinoma), read-out: Cytotoxicity (% cell viability at 30 µM) MCF-7
Kindly provide the numeric value in % only, without the unit symbol.

Qu. Using the record for CCn1c(O)c(C(c2cc(O)ccc2[N+](=O)[O-])c2c(O)n(CC)c(=S)n(CC)c2=O)c(=O)n(CC)c1=S , report its viability at 72 h, 30 µM.
Ans. 91.1

Qu. Using the record for CCn1c(O)c(C(c2cccc(O)c2)c2c(O)n(CC)c(=S)n(CC)c2=O)c(=O)n(CC)c1=S , report its viability at 72 h, 30 µM.
Ans. 91.7

Qu. Using the record for CCn1c(O)c(C(C(C)=Cc2ccccc2)c2c(O)n(CC)c(=S)n(CC)c2=O)c(=O)n(CC)c1=S , report its viability at 72 h, 30 µM.
Ans. 88.3

Qu. Using the record for CCn1c(O)c(C(c2ccc([N+](=O)[O-])cc2)c2c(O)n(CC)c(=S)n(CC)c2=O)c(=O)n(CC)c1=S , report its viability at 72 h, 30 µM.
Ans. 91.7

Qu. Using the record for CCn1c(O)c(C(c2ccccc2)c2c(O)n(CC)c(=S)n(CC)c2=O)c(=O)n(CC)c1=S , report its viability at 72 h, 30 µM.
Ans. 90

Qu. Using the record for CCn1c(O)c(C(c2ccc(N(C)C)cc2[N+](=O)[O-])c2c(O)n(CC)c(=S)n(CC)c2=O)c(=O)n(CC)c1=S , report its viability at 72 h, 30 µM.
Ans. 88.1

Provenance of the data: paper PMC8533253
